Test system: HS 578T breast
Assay: NCI tumour cell line growth inhibition, 48 h; in the data active = GI50 below about 0.43 µM; inactive = the rest
Lab note: assign the record to one of active, inactive

Ask: What classification did C=C1C[C@@H]2[C@H](CC[C@]3(C)C(=O)CC[C@@H]23)[C@@]2(C)C=CC(=O)C=C12 end up with in this test?
Result: inactive

Ask: What classification did C=C(C)[C@@H]1CC[C@]2(C)[C@H](CC=C3[C@@H]4[C@H](C)[C@@H](C)CC[C@]4(CO)CC[C@]32C)[C@@]1(C)CCCN end up with in this test?
Result: inactive

###

System: SW-620 colon
Assay: NCI tumour cell line growth inhibition, 48 h
Listing of recorded GI50 by entry.

For orientation, consider the following solved cases.
Molecule	Study target	GI50
NC(=S)N/N=C\c1nccc2c(C(F)(F)C(F)(F)C(F)(F)F)cccc12	SW-620 colon	0.0538 µM
CCCNc1cccc(-n2ncc3c(N/N=C/c4ccncc4)ncnc32)c1	SW-620 colon	> 6.13 µM
COc1cc(/C=C\c2cc(OC)c(OC)c(OC)c2)cc(NS(=O)(=O)c2cccc(Cl)c2)c1OC	SW-620 colon	0.0438 µM

Ask: # GI50 lookup, item Cc1c(N)nc(C(CC(N)=O)NCC(N)C(N)=O)nc1C(=O)NC(C(=O)NC(C)C(O)C(C)C(=O)NC(C(=O)NCCc1nc(-c2nc(C(=O)NCCCNCCCCN)cs2)cs1)C(C)O)C(OC1OC(CO)C(O)C(O)C1OC1OC(CO)C(O)C(OC(N)=O)C1O)c1cnc[nH]1 (stereo unspecified)
Result: 25.2 µg/mL

Ask: # GI50 lookup, item O=C(c1ccccc1)c1ccccc1C(=O)c1ccccc1
Result: 55.8 µM

Ask: # GI50 lookup, item Brc1ccc2c(c1)c(-c1nc(-c3c[nH]c4ncccc34)cs1)cn2CCCN1CCCCC1
Result: 1.75 µM

Where do these numbers come from? They come from PubChem BioAssay (NCI).
